Hey, just so you know, these numbers are from the supplement of paper PMC10567573.

B1: TRIM29 (parent)
chain: FAEKGELRKSIFSESRKPTVSIME

# Variants of: B1
# Experimental Protocol: protein stability index of a GFP-peptide fusion (GPS, HEK-293T) (PSI 1-6); higher = more stable;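 note: lentivirally expressed fusions sorted by FACS into six bins by GFP to DsRed ratio, PSI derived from sequencing read proportions per bin multiplied by bin number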
# Condition Notes: c terminus: a fixed tail appended
Measured Endpoint: protein stability index

For record G5F the listed protein stability index is 2.17

For record A2V the listed protein stability index is 2.1

For record I22T the listed protein stability index is 2.04

For record E6K the listed protein stability index is 1.85

For record M23I the listed protein stability index is 1.49

For record F12R the listed protein stability index is 3.66

For record A2P the listed protein stability index is 2.59

For record E3R the listed protein stability index is 2.27

For record E24F the listed protein stability index is 2.22

For record R8H the listed protein stability index is 1.54

For record F1D the listed protein stability index is 4.75

For record E6Y the listed protein stability index is 1.84

For record P18N the listed protein stability index is 2.59

For record A2G the listed protein stability index is 2.06

For record R8Q the listed protein stability index is 1.93

For record E24K the listed protein stability index is 1.76

For record E6L the listed protein stability index is 2.78

For record E3L the listed protein stability index is 1.04

For record E3T the listed protein stability index is 2.59

For record I22F the listed protein stability index is 1.79

For record K4G the listed protein stability index is 2.02

For record E24A the listed protein stability index is 2.12
